- ASSAY: HUVEC growth inhibition – cell-based, human, primary screen (AID 575);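 note: 100% = median of untreated cell wells with 0.1% DMSO on each plate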
- RUN PARAMETERS: HUVEC proliferation, CellTiter-Glo luminescence, 72 h; at 10 µM; stronger effect = lower value
Exam item: assign t to entries whose viability is below 90% and f to entries at or above 90%. Note that a value of exactly 90% receives f.

Take a look at these entries with their results.
[
  {
    "COMPOUND": "Cc1nc(C)c(C(=O)Nc2ccc(Oc3ccccc3)cc2)o1",
    "ASSIGNED CLASS": "t"
  },
  {
    "COMPOUND": "Cc1ccc2nc(C3CCN(CC(=O)N4CCCCCC4)CC3)[nH]c2c1",
    "ASSIGNED CLASS": "f"
  },
  {
    "COMPOUND": "FC(F)(F)C(F)(F)C(F)(F)c1nnc2ccc(N3CCOCC3)nn12",
    "ASSIGNED CLASS": "t"
  },
  {
    "COMPOUND": "CCOc1ccc(N2CC(C(=O)Nc3ccc(F)cc3F)CC2=O)cc1 (stereo not drawn)",
    "ASSIGNED CLASS": "f"
  },
  {
    "COMPOUND": "CCn1c(SCC(=O)Nc2ccc3c(c2)OCO3)nnc1-c1cnccn1",
    "ASSIGNED CLASS": "f"
  }
]

Task: Please state whether viability is below 90% for Cc1cc(=O)oc2c(CN3CCN(C)CC3)c(O)c(Cl)cc12
Result: f

Task: Please state whether viability is below 90% for CCOC(=O)c1[nH]c2ccc(Br)cc2c1NC(=O)CCN1CCC(C(=O)OCC)CC1
Result: t

Task: Please state whether viability is below 90% for O=C(Nc1ccccn1)N1CCOCC1
Result: f

Task: Please state whether viability is below 90% for O=C1c2ccccc2NC(c2ccco2)N1O (stereo not drawn)
Result: f

Task: Please state whether viability is below 90% for CCn1c(=O)c2cc(S(=O)(=O)NCc3ccccc3)ccc2n(CC)c1=O
Result: t

Task: Please state whether viability is below 90% for COc1ccc(S(=O)(=O)N2CCN(S(=O)(=O)c3ccc4c(c3)OCCO4)CC2)cc1C
Result: f

====

- ASSAY: HUVEC growth inhibition – cell-based, human, primary screen (AID 575);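 note: 100% = median of untreated cell wells with 0.1% DMSO on each plate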
- RUN PARAMETERS: HUVEC proliferation, CellTiter-Glo luminescence, 72 h; at 10 µM; stronger effect = lower value
Measured viability values are reported for all entries that follow.
Dear colleague, please return just the value in %, with no unit written.

[
  {
    "MOLECULE": "CC(C)CNS(=O)(=O)c1ccc(CCC(=O)NCc2ccco2)cc1",
    "U": "%",
    "viability": 88.6
  },
  {
    "MOLECULE": "COc1cc(C(N)=O)ccc1OCc1ccccc1",
    "U": "%",
    "viability": 91.6
  }
]

Task: Tell me measured viability for O=C(O)C1C2C=CC(C3CC23)C1C(=O)NCCc1ccccc1 (stereo not drawn) please.
Result: 89.7

====

Measured viability values are reported for all entries that follow.
- ASSAY: reversal of MRP1-mediated doxorubicin resistance, pilot screen, H69AR cells, doxorubicin co-treatment (AID 601)
- RUN PARAMETERS: H69AR cells, CellTiter-Glo, 72 h; compound alone cytotoxicity; at 10 µM
Dear colleague, please return just the value in %, with no unit written.

Task: Tell me measured viability for CC(C)OC(=O)C1C2C=CC3(CN(Cc4cccs4)C(=O)C13)O2 (stereo unspecified) please.
Result: 90.1

Task: Tell me measured viability for CCC1(C(=O)OC)NC(c2cccc(F)c2)C2C(=O)N(C)C(=O)C21 (stereo unspecified) please.
Result: 88.3

Task: Tell me measured viability for O=S(=O)(c1ccc2c(c1)OCCO2)N1CCN(Cc2ccc3c(c2)OCO3)CC1 please.
Result: 88.4

Task: Tell me measured viability for O=C(NCC1CCCO1)c1cccc(N2CCCC2=O)c1 (stereo unspecified) please.
Result: 90.2

Task: Tell me measured viability for Cc1cc(NS(=O)(=O)c2ccc(NC(=O)Nc3ccc4c(c3)OCO4)cc2)no1 please.
Result: 92.6

Task: Tell me measured viability for O=C(Cn1nc(-c2ccc(Cl)cc2)ccc1=O)NCCCN1CCN(Cc2ccccc2)CC1 please.
Result: 90.1
